assay: in vitro; type: in vitro ADME; conditions: human, Caco-2
attribute measured: Papp A→B at 90 min (×10⁻⁶ cm/s)
Hi! Could you send only the number? It should be in ×10⁻⁶ cm/s, unit omitted.

Here is how some molecules turned out for Papp A→B at 90 min.
# molecule, Papp A→B at 90 min [×10⁻⁶ cm/s]
rows = [
    ("CNc1nc(N)nc2c1ncn2[C@@H]1O[C@H](COC(C)=O)[C@@H](O)[C@@]1(C)F [Compound 178]", 6.7),
    ("N#C[C@@]1(c2ccc3c(N)ncnn23)O[C@H](COC(=O)CC2CCOCC2)[C@@H](O)[C@H]1O [Compound 257]", 0.03),
]

Now examine the next entry.
QUERY: What does the data say about its Papp A→B at 90 min? Entry: CC(C)(C)[C@H](N)C(=O)O[C@H]1[C@@H](O)[C@](C#N)(c2ccc3c(N)ncnn23)O[C@@H]1COC(=O)CC1CCCCC1 [Compound 397]
RESULT: 2.8

The reported numbers originate from patent US12102648B2.
